protocolDescription: Compound was evaluated for its stability to dephosphorylation.
Type: physicochemical
Lab note - cut at 100 min for half-life: true if strictly below, false if not.

Enquiry: hey, is half-life for Nc1ncnc2c1ncn2[C@H]1C[C@H](OCP(=O)(O)CP(=O)(O)O)[C@H]2C[C@H]21 lower than 100 min or not?
Return: false

Enquiry: Hello, is half-life of the following compound strictly smaller than 100 min? Nc1ncnc2c1ncn2[C@@H]1C=C[C@H](OCP(=O)(O)OP(=O)(O)C(Br)(Br)P(=O)(O)O)C1
Return: false

Enquiry: For Nc1nc(O)c2ncn([C@@H]3C=C[C@H](OCP(=O)(O)OP(=O)(O)OP(=O)(O)O)C3)c2n1 , is the recorded half-life below the cut-off of 100 min?
Return: false

Enquiry: In plain terms, does Nc1ncnc2c1ncn2[C@H]1C=C[C@@H](OCP(=O)(O)OP(=O)(O)OP(=O)(O)O)C1 come in under 100 min for half-life?
Return: false

Enquiry: Could you please tell me whether half-life recorded for Nc1ncnc2c1ncn2[C@H]1C[C@H](OCP(=O)(O)OP(=O)(O)O)[C@H]2C[C@H]21 is less than 100 min?
Return: false

Enquiry: Please let me know if Cc1cn([C@H]2C[C@H](N=[N+]=[N-])[C@@H](CO[P@](=O)(O)O[P@](=O)(O)OP(=O)(O)O)O2)c(=O)[nH]c1=O [ZIDOVUDINE TRIPHOSPHATE] shows half-life below 100 min.
Return: true

Enquiry: Is half-life of Nc1ncnc2c1ncn2[C@H]1C[C@H](O)[C@@H](COP(=O)(O)OP(=O)(O)OP(=O)(O)O)O1 strictly below 100 min?
Return: true

Enquiry: Find out if reported half-life for Nc1ncnc2c1ncn2[C@@H]1C=C[C@H](OCP(=O)(O)OP(=O)(O)OP(=O)(O)O)C1 is less than 100 min
Return: false

Enquiry: is_below(half-life, 100 min) for Nc1nc(O)c2ncn([C@@H]3C=C[C@H](OCP(=O)(O)OP(=O)(O)C(Br)(Br)P(=O)(O)O)C3)c2n1 ?
Return: false

Enquiry: Problem: For the compound Nc1nc2c(ncn2[C@H]2C[C@H](O)[C@@H](COP(=O)(O)OP(=O)(O)OP(=O)(O)O)O2)c(=O)[nH]1 [DEOXYGUANOSINE TRIPHOSPHATE] , is half-life under 100 min?
Return: true

Enquiry: Lab note: half-life threshold 100 min. Does this compound come in strictly under it? Nc1ncnc2c1ncn2[C@@H]1C[C@@H](OCP(=O)(O)CP(=O)(O)O)[C@@H]2C[C@@H]21
Return: false

Enquiry: Strictly below 100 min: is that where half-life of Nc1ncnc2c1ncn2[C@@H]1C[C@@H](OCP(=O)(O)OP(=O)(O)O)[C@@H]2C[C@@H]21 sits?
Return: false
